Exercise: for every item that follows, state its recorded inhibition.
assay.overview: inhibitors of E-selectin induction by TNFa, primary screen, imaging, HUVEC, immunofluorescence, MLSMR starter and 10KST1 sets (AID 487);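 also: signal is fraction of cell area covered by stained E-selectin grains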
condition.notes: HUVEC TNFalpha-induced E-selectin immunofluorescence imaging, at 2 µM; stronger effect = higher value
Give the value in % but do not write % after it.

Consider the molecule COc1ccccc1S(=O)(=O)Cc1ccc(C(=O)NCCN2CCCCCC2)o1 and give its measured inhibition. 9

Consider the molecule Nc1nc2n(n1)C(c1cccs1)CC(c1ccc(Br)cc1)N2 (centres undefined) and give its measured inhibition. -13.7

Consider the molecule CCCCN(C(=O)c1ccc(Cl)cc1)C1CC2CCC(C1)N2C (centres undefined) and give its measured inhibition. -93.1

Consider the molecule COC(=O)c1c(C)[nH]c(C(=O)OCc2ccc(F)cc2)c1C and give its measured inhibition. 50.5

Consider the molecule Cn1cnc(S(=O)(=O)NCc2cccs2)c1 and give its measured inhibition. -43.8

Consider the molecule COc1ccc(NC(=O)N2CCN(c3nc(-c4cccc(OC)c4)cs3)CC2)cc1 and give its measured inhibition. -23.1

Consider the molecule O=C(CCN1C(=O)COc2ccccc21)NCCCN1CCN(c2ccccc2F)CC1 and give its measured inhibition. -82.2

Consider the molecule C=CCSc1nc(N)c2c(C)c(C)sc2n1 and give its measured inhibition. -20.5

Consider the molecule CCSc1nnc(NC(=O)C2CCCN(S(=O)(=O)c3cnc[nH]3)C2)s1 (centres undefined) and give its measured inhibition. -101

Consider the molecule O=c1[nH]c2sc3c(c2c(=O)n1Cc1ccccc1)CCC3 and give its measured inhibition. -99.8

Consider the molecule CCCCc1c(O)nc(N2CCN(Cc3ccccc3)CC2)[nH]c1=O and give its measured inhibition. -61

Consider the molecule CC1(C)Cc2[nH]c(=S)c(C#N)cc2CO1 and give its measured inhibition. -90.9

Consider the molecule c1ccc(-c2ccccc2OCCn2cncn2)cc1 and give its measured inhibition. -63.6

Consider the molecule C=COCCNC(=O)Nc1ccc(Cl)c(Cl)c1 and give its measured inhibition. -170

Consider the molecule CCOc1cccc(NC(=O)C2CC(=O)NC(=Nc3ccccc3)S2)c1 (centres undefined) and give its measured inhibition. -27.3

Consider the molecule COCCn1c(SCC(=O)N2CCc3ccccc32)nc2c(c1=O)SC(C)C2 (centres undefined) and give its measured inhibition. -0.4

Consider the molecule CCC(=O)Nc1c(C#N)c2nc3ccccc3nc2n1C1CCCCC1 and give its measured inhibition. 6.8

Consider the molecule CCCCC(=O)C1CCN(Cc2ccccc2)CC1 and give its measured inhibition. 19.3

Consider the molecule Cc1noc(C)c1C(=O)Nc1ccc(Cl)cc1C(F)(F)F and give its measured inhibition. -6

Consider the molecule CCOc1ccccc1N1Cc2cc(C)c(C)cc2C1 and give its measured inhibition. -9

Consider the molecule COc1cc(S(=O)(=O)N2CCC(N3CCCCC3)CC2)ccc1-n1cnnn1 and give its measured inhibition. -20.4

Consider the molecule COc1cc(S(=O)(=O)N2CCN(C)CC2)c(OC)cc1Br and give its measured inhibition. -43.1

Consider the molecule O=C(NCCCn1ccnc1)c1cnn2c1NC(c1ccccc1)CC2C(F)(F)F (centres undefined) and give its measured inhibition. 6.6

Consider the molecule COc1cc2c(cc1OC)CN(CC(=O)Nc1cccc(C)c1)CC2 and give its measured inhibition. -74.2

* * *

tgt: Alpha-2C adrenergic receptor (Homo sapiens) (UniProt P18825)
Sequence (P18825 whole entry, looked up): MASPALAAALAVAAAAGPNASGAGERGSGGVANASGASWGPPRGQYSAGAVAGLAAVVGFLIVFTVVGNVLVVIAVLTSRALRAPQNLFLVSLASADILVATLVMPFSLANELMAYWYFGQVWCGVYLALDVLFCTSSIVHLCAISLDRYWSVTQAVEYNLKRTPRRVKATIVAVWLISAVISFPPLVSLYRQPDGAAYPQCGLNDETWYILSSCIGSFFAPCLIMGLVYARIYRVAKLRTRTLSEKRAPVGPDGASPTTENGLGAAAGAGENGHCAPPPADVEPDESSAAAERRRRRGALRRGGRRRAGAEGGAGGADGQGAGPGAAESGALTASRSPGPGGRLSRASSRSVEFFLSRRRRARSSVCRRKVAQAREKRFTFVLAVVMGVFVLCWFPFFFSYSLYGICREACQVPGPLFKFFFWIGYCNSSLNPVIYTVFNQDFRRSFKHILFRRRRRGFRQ
assay.overview: modulators of alpha2C/GIRK thallium flux, primary screen, cell-based, HEK293 alpha2C/GIRK1/2 (AID 624);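 also: slope of fluorescence ratio to pre-addition baseline per second over 15 to 24 s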
condition.notes: thallium flux BTC fluorescence, at 10 µM, actives lie on both sides
Rule: slope below 0.005 gives MET. Equal to or above 0.005 gives NOT MET.

Criterion: slope strictly below 0.005. Is it met by COc1ccc(C(=O)Nn2c(C3CCC3)nc3ccccc3c2=O)c(OC)c1 ? NOT MET

Criterion: slope strictly below 0.005. Is it met by COc1ccc(-c2nc(CSCC(=O)NCc3ccc4c(c3)OCO4)c(C)o2)cc1OC ? NOT MET

Criterion: slope strictly below 0.005. Is it met by CC(C)c1nnc(NC(=O)C2CCCCC2)s1 ? NOT MET

Criterion: slope strictly below 0.005. Is it met by COC(=O)C1=C(C)n2nnnc2NC1c1ccc(Cl)cc1 (stereo unspecified) ? MET

Criterion: slope strictly below 0.005. Is it met by C/C=C/Cn1c(Br)nc2c1c(=O)[nH]c(=O)n2C ? MET

Criterion: slope strictly below 0.005. Is it met by COc1cc(OC)cc(-c2nc(N)n[nH]2)c1 ? NOT MET

* * *

tgt: Voltage-gated potassium channel subunit beta-2 (Rattus norvegicus)
assay.overview: KvBeta positive modulators, primary screen, biochemical, NADPH fluorescence (AID 623);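 also: fluorescence intensity change per second fitted from 20 to 320 s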
condition.notes: Recombinant KvBeta, NADPH fluorescence decrease slope, 10 min; at 10 µM; stronger effect = lower value
The source made the active and inactive calls.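 The calls were made as follows: active = NADPH fluorescence slope more negative than the mean of all samples by about 3 SD, 99.7% confidence; inactive = the rest.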
Exercise: for every item that follows, state its recorded NADPH fluorescence slope.

Consider the compound O=C(CCc1ccccc1)Nc1ccncc1 and give its measured NADPH fluorescence slope. -1.1e-05 (inactive)

Consider the compound O=C(NCc1cccs1)C1CC(=O)N(C2CCCC2)C1 (stereo unspecified) and give its measured NADPH fluorescence slope. 4.8e-05 (inactive)

Consider the compound CCN(CC)CCCN1C(=O)C(=O)/C(=C(/O)c2ccc3c(c2)CC(C)O3)C1c1cccnc1 (stereo unspecified) and give its measured NADPH fluorescence slope. -2.4e-05 (inactive)

Consider the compound CC(=O)/C=C(\C)NCCNc1c(F)c(F)c(CO)c(F)c1F and give its measured NADPH fluorescence slope. -1.4e-05 (inactive)

Consider the compound Cn1c(NC(=O)c2ccccc2NC(=O)C(C)(C)C)nc2ccccc21 and give its measured NADPH fluorescence slope. 5.8e-06 (inactive)

Consider the compound Cc1ccc(Cn2c(NCCc3ccccc3)nc3c2c(=O)n(C)c(=O)n3C)cc1 and give its measured NADPH fluorescence slope. -6.3e-06 (inactive)

* * *

tgt: Dual specificity protein phosphatase 6 (Homo sapiens)
assay.overview: DUSP6 inhibitors restoring Erk phosphorylation by chemical complementation, primary imaging in DUSP6-transfected HeLa (AID 609);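 as to inhibition: phospho-Erk level distribution per well compared with pooled transfected vehicle control wells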
condition.notes: HeLa MKP-3 transfected, phospho-Erk imaging KS statistic; at 10 µM; stronger effect = higher value; cells stimulated with TPA for 15 min
Think of 10% as a floor: if inhibition stands on it or above, it is met; beneath it, not met.

Given the entry Cn1c(CSc2ncn[nH]2)nc2ccccc21 , answer whether its inhibition meets or surpasses 10%. met

Given the entry N#Cc1c(N)nc(SCC(=O)NCc2ccc3c(c2)OCO3)c(C#N)c1-c1cccs1 , answer whether its inhibition meets or surpasses 10%. not met

Given the entry CCCCSc1nnc2n(CCc3ccccc3)c(=O)c3c4c(sc3n12)COC(C)(C)C4 , answer whether its inhibition meets or surpasses 10%. met

Given the entry Nc1nc2n(n1)C(c1ccc(F)cc1)CC(c1ccc(F)cc1)N2 (stereo not given) , answer whether its inhibition meets or surpasses 10%. not met

Given the entry COc1cccc(NC(=O)c2cc(C(=O)Nc3cccc(OC)c3)n(C)n2)c1 , answer whether its inhibition meets or surpasses 10%. not met

Given the entry COc1cc(/C=N/n2nnnc2N)ccc1O , answer whether its inhibition meets or surpasses 10%. met

Given the entry Cn1c(NCc2ccccc2)nc2c1c(=O)n(Cc1ccc(Br)cc1)c(=O)n2C , answer whether its inhibition meets or surpasses 10%. met

Given the entry CC1(C)CC(=O)C2=C(C1)OC(N)=C(C#N)C21C(=O)N(CN2CCOCC2)c2ccccc21 (stereo not given) , answer whether its inhibition meets or surpasses 10%. met

Given the entry CC(=O)Nc1ccc(OC(=O)CC2SC(=O)NC2=O)cc1 (stereo not given) , answer whether its inhibition meets or surpasses 10%. not met

Given the entry Cn1c(NCC(O)c2ccccc2)nc2c1c(=O)n(Cc1ccc(Cl)cc1)c(=O)n2C (stereo not given) , answer whether its inhibition meets or surpasses 10%. not met

* * *

assay.overview: DUSP6 inhibitors restoring Erk phosphorylation by chemical complementation, primary imaging in DUSP6-transfected HeLa (AID 609)
condition.notes: HeLa MKP-3 transfected, phospho-Erk imaging KS statistic; measured here: nuclear pErk red intensity z-score; at 10 µM; stronger effect = higher value; cells stimulated with TPA for 15 min
Exercise: for every item that follows, state its recorded z-score.
Just the number.

Consider the compound COCCCn1c2nc3ccccc3nc2c2c(=O)n(-c3ccccc3OC)c(C)nc21 and give its measured z-score. 0.0802

Consider the compound O=C(Cc1ccc(Cl)cc1)Nc1cccc(-c2nnc(-c3ccco3)o2)c1 and give its measured z-score. -0.033

Consider the compound Cc1csc(SCCn2c(Br)nc3c2c(=O)[nH]c(=O)n3C)n1 and give its measured z-score. 0.738

Consider the compound CC(C)=CCC(C)(C)CNC(=O)NC1CCCCC1 and give its measured z-score. -0.256

Consider the compound COc1ccccc1-c1c(C)oc2c(CN3CCN(C)CC3)c(O)ccc2c1=O and give its measured z-score. -0.66

Consider the compound O=C(O)C(O)c1ccco1 (stereo unspecified) and give its measured z-score. -0.65

Consider the compound Cc1cc(N2C(=O)C(=O)/C(=C(/O)c3ccc(F)cc3)C2c2cccc(Br)c2)no1 (stereo unspecified) and give its measured z-score. 1.03

Consider the compound CCN(CC)CCCN1C(=O)C(=O)/C(=C(/O)c2ccccc2)C1c1cc(OC)ccc1OC (stereo unspecified) and give its measured z-score. 1.76

Consider the compound CN(CCCCCC(=O)/C=N/O)Cc1ccccc1 and give its measured z-score. -0.0581

Consider the compound CC(=O)NC(=O)Nc1sc(=S)n(C)c1C and give its measured z-score. 0.71

Consider the compound CCc1nc(NC2CCCCC2)c(C#N)c2c1COC(C)(C)C2 and give its measured z-score. -0.579

Source: PubChem BioAssay
